Where do these numbers come from? They come from PubChem BioAssay AID1413.

# System: HeLa viability, CellTiter-Glo ATP luminescence
# procedure_text: viability loss of HeLa cells – cell-based, CellTiter-Glo luminescence, cytotoxicity control for Wee1 degradation inhibitor project, dose response (AID 1413)
Calls of active or inactive are those of the source.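 Rule for the calls: active = CC50, the dose killing half the cells, at or below 10 µM, by curve fit or manual estimate; inactive = CC50 above 10 µM.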
Kindly supply the reported CC50 values for the records listed here.

Before answering, review these 3 worked examples.
| compound | experimental_system | CC50 |
| --- | --- | --- |
| COc1cc(C2=NOC(C(=O)NCc3cccs3)C2)cc(OC)c1OC (stereo not given) | HeLa viability, CellTiter-Glo ATP luminescence | > 49.8 µM (inactive) |
| COc1ccc(/C=N/NC(=O)c2ccc3ccccc3c2)cc1OS(=O)(=O)c1ccc(NC(C)=O)cc1 | HeLa viability, CellTiter-Glo ATP luminescence | > 49.8 µM (inactive) |
| O=C(COc1ccc(C(=O)c2ccc(F)cc2)cc1)NCc1ccc(F)cc1 | HeLa viability, CellTiter-Glo ATP luminescence | > 49.8 µM (inactive) |

Please go through the list and note CC50 for each compound.
1. COc1ccccc1-c1ccc(SCc2ccccc2F)nn1
2. COc1ccc(NC(=O)/C(Cl)=C(/Cl)S(=O)Cc2ccc(C)cc2)cn1 (stereo not given)

Response line:
["> 49.8 µM (inactive)", "14.5 µM (inactive)"]

---

# Test system: HeLa viability, CellTiter-Glo ATP luminescence
# procedure_text: viability loss of HeLa cells – cell-based, CellTiter-Glo luminescence, cytotoxicity control for Wee1 degradation inhibitor project, dose response (AID 1413)
Activity calls are given as the source filed them.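 The calls were made as follows: active = CC50, the dose killing half the cells, at or below 10 µM, by curve fit or manual estimate; inactive = CC50 above 10 µM.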
property_name: CC50

| smiles_entry | CC50 |
| --- | --- |
| CCCCS(=O)(=O)/C=C\C=C/S(=O)(=O)CCCC | > 16.6 µM (inactive) |
| C=CS(=O)(=O)c1ccc(Oc2ccc(S(=O)(=O)C=C)cc2)cc1 | > 49.8 µM (inactive) |
| COC(=O)C1CCN(C(=O)/C=C/c2ccc(OC)cc2)CC1 | > 49.8 µM (inactive) |
| CC(=O)Nc1ccc(/C=N/Nc2nc3ccccc3s2)cc1 | > 49.8 µM (inactive) |
| O=c1[nH]c2ccccc2nc1/C=C(\O)c1cccs1 | > 49.8 µM (inactive) |

Shift focus to the following entry.
Prompt line: Would you mind telling me what CC50 value was observed for COc1ccc(Nc2oc(-c3ccc(OC)cc3)nc2C#N)cc1 ?
Response line: > 49.8 µM (inactive)

---

# System: HeLa viability, CellTiter-Glo ATP luminescence
# procedure_text: viability loss of HeLa cells – cell-based, CellTiter-Glo luminescence, cytotoxicity control for Wee1 degradation inhibitor project, dose response (AID 1413)
Calls of active or inactive are those of the source.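 The calls were made as follows: active = CC50, the dose killing half the cells, at or below 10 µM, by curve fit or manual estimate; inactive = CC50 above 10 µM.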
property_name: CC50

Before answering, review these 6 worked examples.
| compound | experimental_system | CC50 |
| --- | --- | --- |
| O=[N+]([O-])c1ccc(Sc2cccc[n+]2[O-])c2nonc12 | HeLa viability, CellTiter-Glo ATP luminescence | 6.76 µM |
| O=C(/C=C/c1ccccc1)Nc1ccc(Cl)cn1 | HeLa viability, CellTiter-Glo ATP luminescence | > 49.8 µM (inactive) |
| Cc1ccc2nc(NCc3ccccc3)[nH]c2c1 | HeLa viability, CellTiter-Glo ATP luminescence | > 49.8 µM (inactive) |
| Cn1cccc1/C=C1\SC(=Nc2ccccc2)NC1=O | HeLa viability, CellTiter-Glo ATP luminescence | > 49.8 µM (inactive) |
| On1onc2c3cc(-c4ccccc4)nc3ccc21 | HeLa viability, CellTiter-Glo ATP luminescence | > 49.8 µM (inactive) |
| Cc1nc2ccccn2c1-c1csc(Nc2cccc(O)c2)n1 | HeLa viability, CellTiter-Glo ATP luminescence | > 49.8 µM (inactive) |

Please go through the list and note CC50 for each compound.
1. CCOC(=O)N1CCN(C(=O)c2cc(-c3ccc(OCC)cc3)nc3ccccc23)CC1
2. CCOC(=O)C1=C(c2ccccc2)O/C(=C(/C#N)C(F)(F)F)S1
3. CCN(CC)c1ccc(/C=N/NC(=O)c2ccco2)cc1

Response line:
1: > 49.8 µM (inactive); 2: 7.17 µM; 3: > 49.8 µM (inactive)

Prompt line: Would you mind telling me what CC50 value was observed for CCOc1cccc(N(C(=O)Cc2cccs2)C(C(=O)NC2CCCCC2)c2cccn2C)c1 (stereo not given) ?
Response line: > 49.8 µM (inactive)
